Data provenance is ChEMBL document CHEMBL5154860.

test: in vitro; settings: dog, MDCK-MDR1
MEASUREMENT_NAME: Papp (×10⁻⁶ cm/s)
Could you give me the number in ×10⁻⁶ cm/s? Just the number is fine.

Inquiry: Report Papp for `Cn1ccnc1SC[C@H]1CCN(S(=O)(=O)c2ccc3c(c2)CCO3)C[C@@H]1F` please.
Reply text: 26.8

---

test: in vivo; conditions: Sprague-Dawley, rat, po, 10 mg/kg
MEASUREMENT_NAME: Tmax at 24 h (min)
Give the number; min is assumed, so skip it.

Inquiry: Reported Tmax at 24 h for `Cn1ccnc1SC[C@H]1CCN(S(=O)(=O)c2ccc3c(c2)CCO3)C[C@@H]1F` : what is it?
Reply text: 15
